Data credit: ChEMBL document CHEMBL3864187

Experiment: Cytotoxicity against human HPL1A cells measured after 48 hrs by MTT assay
Type: toxicity, cell-based
PARAMETER_MEASURED: IC50 at 48 h (µg/mL)
Answers are plain numbers, in µg/mL.

GET /values?readout=IC50 at 48 h&item= CCCCCCCCCCCCCNCC(=O)N(CCCCN)CC(=O)N(CC(N)=O)Cc1ccco1
36.3

----------
Assay: Cytotoxicity against human HepG2 cells measured after 48 hrs by MTT assay
Type: toxicity, cell-based
PARAMETER_MEASURED: IC50 at 48 h

Query: IC50 at 48 h; subject: CCCCCCCCCCCCCNCC(=O)N(CCCCN)CC(=O)N(CC(N)=O)Cc1ccco1
43.6 to 56.2 µg/mL
